- assay-target: UniProt:Q9XUB2
- Sequence (Q9XUB2 whole entry, looked up): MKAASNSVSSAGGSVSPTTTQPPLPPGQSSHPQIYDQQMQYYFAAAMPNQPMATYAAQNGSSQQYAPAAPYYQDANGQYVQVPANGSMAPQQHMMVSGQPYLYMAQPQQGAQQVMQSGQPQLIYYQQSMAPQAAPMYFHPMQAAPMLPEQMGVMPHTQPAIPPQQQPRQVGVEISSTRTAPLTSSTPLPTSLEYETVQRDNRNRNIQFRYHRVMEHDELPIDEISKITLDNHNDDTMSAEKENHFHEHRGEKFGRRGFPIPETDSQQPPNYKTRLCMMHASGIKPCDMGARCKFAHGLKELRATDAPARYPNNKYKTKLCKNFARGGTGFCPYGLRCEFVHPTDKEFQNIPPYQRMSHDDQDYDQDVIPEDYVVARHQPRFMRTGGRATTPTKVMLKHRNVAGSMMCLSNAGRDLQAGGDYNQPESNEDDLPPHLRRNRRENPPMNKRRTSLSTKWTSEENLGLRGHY
- experimental-details: MEX-5 RNA-binding inhibition confirmation – biochemical, C. elegans, fluorescence polarization, dose retest (AID 449745);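 note: potency is for blocking Mex-5 binding to labeled TCR2 RNA like unlabeled competitor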
- protocol-conditions: Mex-5 / TCR-2 RNA binding
Inconclusive results are not listed. Active and inactive are the calls of the source. The rule behind the calls is not given here.
Outcome codes: active, inactive

compound	discrete-label
CN1CC=C2C(C#N)=C(N)C(C#N)(C#N)[C@H](c3ccoc3)[C@H]2C1	active
CCc1ccc(N2C(=O)NC(=O)/C(=C/c3cccn3CCOc3ccc(C(C)CC)cc3)C2=O)cc1 (stereo not given)	inactive
O=C(C[n+]1ccc(C(=O)N/N=C/c2ccc(OCc3ccccc3)cc2)cc1)c1ccccc1	active
Cc1cc(C)c2c(c1)NC(C(=O)O)C1CC=CC21 (stereo not given)	active
CCc1ccc(N2C(=O)NC(=O)/C(=C\c3cccn3CCOc3ccc(C(C)C)cc3)C2=O)cc1	inactive
